Target: T1, acyl-ACP thioesterase ChFatB2 from Cuphea hookeriana, excluding the transit peptide (residues 129-395) (Cuphea hookeriana, UniProt Q39514 129-395)
T1 sequence (looked up): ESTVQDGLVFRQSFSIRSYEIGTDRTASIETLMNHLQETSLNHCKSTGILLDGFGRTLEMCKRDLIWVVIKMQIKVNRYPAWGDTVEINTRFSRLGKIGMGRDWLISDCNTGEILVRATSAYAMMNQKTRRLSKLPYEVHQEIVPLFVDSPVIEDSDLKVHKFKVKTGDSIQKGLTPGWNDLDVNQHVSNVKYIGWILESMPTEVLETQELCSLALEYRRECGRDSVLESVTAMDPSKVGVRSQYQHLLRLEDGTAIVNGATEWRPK
Assay: cell-based or functional assay
readout_name: Km of ChFatB2 thioesterase activity (DTNB assay, Michaelis-Menten fit) (µM)

| binder | measurement_unit | measured_value |
| --- | --- | --- |
| C8-acyl acyl carrier protein 2 from Cuphea lanceolata (residues 54-137) (natural protein, UniProt P52412 54-137, looked up, C8 (8:0) acyl chain on the phosphopantetheine of holo-ACP (residue not given), acyl carrier protein ClACP2, Cuphea lanceolata, UniProt P52412, residues 54-137, excluding the chloroplast transit peptide; also called C8-ClACP2) QAKPETVTKVCNIVKKQLALPDDSDVSGVSKFSALGADSLDTVEIVMGLEEEFGISVEEESAQSIQTVQDAADLIEKLMEKKGH | µM | 217 |
| C10-acyl acyl carrier protein from Escherichia coli (natural protein, C10 (10:0) acyl chain on the phosphopantetheine of holo-ACP (residue not given), also called C10-EcACP) STIEERVKKIIGEQLGVKQEEVTNNASFVEDLGADSLDTVELVMALEEEFDTEIPDEEAEKITTVQAAIDYINGHQA | µM | 186 |
| C8-acyl acyl carrier protein from Escherichia coli (natural protein, C8 (8:0) acyl chain on the phosphopantetheine of holo-ACP (residue not given), also called C8-EcACP; C8-ACP) STIEERVKKIIGEQLGVKQEEVTNNASFVEDLGADSLDTVELVMALEEEFDTEIPDEEAEKITTVQAAIDYINGHQA | µM | 350 |
| C10-acyl acyl carrier protein 2 from Cuphea lanceolata (residues 54-137) (natural protein, UniProt P52412 54-137, looked up, C10 (10:0) acyl chain on the phosphopantetheine of holo-ACP (residue not given), acyl carrier protein ClACP2, Cuphea lanceolata, UniProt P52412, residues 54-137, excluding the chloroplast transit peptide; also called C10-ClACP2) QAKPETVTKVCNIVKKQLALPDDSDVSGVSKFSALGADSLDTVEIVMGLEEEFGISVEEESAQSIQTVQDAADLIEKLMEKKGH | µM | 263 |
